Experiment: in vivo
Assay type: in vivo, Sprague-Dawley rats
Conditions: male, Sprague-Dawley, rat, in vivo, iv, MRT0-t
Measured parameter: MRT last (min)
Report as a plain number; the unit min is understood.

Ask: Supply measured MRT last of C=C[C@@H]1C2=CCOC(=O)C2=CO[C@H]1O[C@@H]1O[C@H](CO)[C@@H](O)[C@H](O)[C@H]1O [GPS, gentiopicroside] in your reply.
Result: 21.6

---

Assay: Multi-component PK in rats after i.v. administration of ASEP
Format: in vivo, Sprague-Dawley rats
Conditions: male, Sprague-Dawley, rat, plasma, iv, 1.76 ml/kg, rat plasma, Low group: single i.v. 1.76 ml/kg of 5 times concentrated ASEP, mean ± SD, n=3; read-out: t 1/2 (converted)
Measured parameter: half-life
# output: number + unit

> print(dat)
                               smiles.input  measured.parameter  value.observed
1  O=C(/C=C/c1ccc(O)c(O)c1)O[C@@H]1C[C@](O)(C(=O)O)C[C@@H](O)[C@H]1O           half-life        21.6 min

Alright, here's another compound for you.
Ask: Supply measured half-life of O=C(O)c1ccc(O)c(O)c1 in your reply.
Result: 21 min

---

Assay: Stability of the compounds in rat plasma (LC-MS validation)
Format: in vitro ADME
Details: extracted plasma samples, 10h in auto-sampler vials, middle spiked level (MQC, 400-1600 ng/mL)
# Lookup of reported Stability, RE keyed by entry
Report as a plain number; the unit % is understood.

> print(dat)
                                   compound  measured.parameter  measurement.units  value.observed
1  O=C(O)c1ccc(O)c(O)c1 [PCA, protocatechuic acid]       Stability, RE                  %           -6.89
2  C=C[C@@H]1C2=CCOC(=O)C2=CO[C@H]1O[C@@H]1O[C@H](CO)[C@@H](O)[C@H](O)[C@H]1O [GPS, gentiopicroside]       Stability, RE                  %            2.52
3  O=C(/C=C/c1ccc(O)c(O)c1)OC1[C@H](O)CC(O)(C(=O)O)C[C@H]1O (stereo partly shown) [4-CQA]       Stability, RE                  %           14.39

Alright, here's another compound for you.
Ask: Supply measured Stability, RE of COc1cc(/C=C/CO)cc(OC)c1O[C@@H]1O[C@H](CO)[C@@H](O)[C@H](O)[C@H]1O [EB, eleutheroside B] in your reply.
Result: -0.97

---

# Lookup of reported Stability, RE keyed by entry
Assay: Stability of the compounds in rat plasma (LC-MS validation)
Format: in vitro ADME
Conditions: rat plasma, long-term stability (-80℃,15 days), high spiked level (HQC, 8000-16000 ng/mL)
Report as a plain number; the unit % is understood.

> print(dat)
                                   compound  measured.parameter  value.observed
1  O=C(O)c1ccc(O)c(O)c1 [PCA, protocatechuic acid]       Stability, RE          -10.60

Ask: Supply measured Stability, RE of COc1cc(/C=C/CO)cc(OC)c1O[C@@H]1O[C@H](CO)[C@@H](O)[C@H](O)[C@H]1O [EB, eleutheroside B] in your reply.
Result: 6.11

Ask: Supply measured Stability, RE of O=C(/C=C/c1ccc(O)c(O)c1)OC1[C@H](O)CC(O)(C(=O)O)C[C@H]1O (stereo partly shown) [4-CQA] in your reply.
Result: -1.64

Ask: Supply measured Stability, RE of C=C[C@@H]1C2=CCOC(=O)C2=CO[C@H]1O[C@@H]1O[C@H](CO)[C@@H](O)[C@H](O)[C@H]1O [GPS, gentiopicroside] in your reply.
Result: 9.68

---

# Lookup of reported MRT inf keyed by entry
Experiment: Multi-component PK in rats after i.v. administration of ASEP
Type: in vivo, Sprague-Dawley rats
Conditions: male, Sprague-Dawley, rat, plasma, iv, 1.76 ml/kg, rat plasma, Low group: single i.v. 1.76 ml/kg of 5 times concentrated ASEP, mean ± SD, n=3; read-out: MRT0-∞
Report as a plain number; the unit min is understood.

Ask: Supply measured MRT inf of O=C(O)c1ccc(O)c(O)c1 [PCA, protocatechuic acid] in your reply.
Result: 16.8

Ask: Supply measured MRT inf of O=C(/C=C/c1ccc(O)c(O)c1)O[C@@H]1C[C@](O)(C(=O)O)C[C@@H](O)[C@H]1O [3-CQA, 3-caffeoylquinic acid] in your reply.
Result: 25.8

---

Test: Multi-component PK in rats after i.v. administration of ASEP
Assay type: in vivo, Sprague-Dawley rats
Settings: male, Sprague-Dawley, rat, plasma, iv, 3.52 ml/kg, rat plasma, High group: single i.v. 3.52 ml/kg of 5 times concentrated ASEP, mean ± SD, n=3; read-out: Vd
Measured parameter: Vd (L)
Report as a plain number; the unit L is understood.

> print(dat)
           smiles.input  measured.parameter  value.observed
1  O=C(O)c1ccc(O)c(O)c1                  Vd            4.39

Alright, here's another compound for you.
Ask: Supply measured Vd of O=C(/C=C/c1ccc(O)c(O)c1)O[C@@H]1C[C@](O)(C(=O)O)C[C@@H](O)[C@H]1O in your reply.
Result: 0.64

---

Experiment: Multi-component PK in rats after i.v. administration of ASEP
Format: in vivo, Sprague-Dawley rats
Conditions: male, Sprague-Dawley, rat, plasma, iv, 3.52 ml/kg, rat plasma, High group: single i.v. 3.52 ml/kg of 5 times concentrated ASEP, mean ± SD, n=3; read-out: MRT0-t
# Lookup of reported MRT last keyed by entry
Report as a plain number; the unit min is understood.

> print(dat)
                                   compound  measured.parameter  value.observed
1  O=C(O)c1ccc(O)c(O)c1 [PCA, protocatechuic acid]            MRT last              18

Alright, here's another compound for you.
Ask: Supply measured MRT last of O=C(/C=C/c1ccc(O)c(O)c1)O[C@@H]1C[C@](O)(C(=O)O)C[C@@H](O)[C@H]1O [3-CQA, 3-caffeoylquinic acid] in your reply.
Result: 25.2
